Listing of recorded IC50 by entry.
Tested on: MCF-7
PROTOCOL_DESCRIPTION: MTT cytotoxicity
Type: cell-based
RECORDED_CONDITIONS: Homo sapiens, MCF7; MCF-7, MTT, 48 hours, 100 μM concentration range
Quick reminder: number only, in µM, skip the unit.

Known IC50 results, listed for orientation:
>  <COMPOUND>
CC(=O)[C@H]1c2c(c(O)c3c(O)cccc3c2-c2c3c(c(O)c4c(O)cccc24)C(=O)C[C@](C)(O)[C@H]3C(C)=O)C(=O)C[C@]1(C)O [Compound-2]

>  <IC50 / µM>
11.2

$$$$
>  <COMPOUND>
CC(=O)[C@@H]1C(C)=CC(=O)c2c1c(-c1c3c(c(O)c4c(O)cccc14)C(=O)C[C@](C)(O)[C@H]3C(C)=O)c1cccc(O)c1c2O [Compound-3, Setomimycin]

>  <IC50 / µM>
6.9

$$$$

IC50 for CC(=O)[C@H]1c2cc3cccc(O)c3c(O)c2C(=O)C[C@]1(C)O [Compound-1] is 9.56
